- test summary: In vitro metabolism, mouse liver microsomes
- Assay type: in vitro ADME
- run conditions: % remaining of compound after 60 min treatment with mouse liver microsomes
measured property: MLM % at 60 min (%)
Give bare numbers, in %.

Some molecules with recorded MLM % at 60 min:
# structure smiles string, measured property, numeric value
data = [
    ("CCOC(=O)c1cc(-c2ccc(OCc3ccc(Cl)cc3)c(-c3cc(C(F)(F)F)cc(C(F)(F)F)c3)c2O)n[nH]1", "MLM % at 60 min", 60.3),
    ("Cn1nc(C(F)(F)F)cc1-c1ccc(OCc2ccc(Cl)cc2)cc1C=O", "MLM % at 60 min", 21.8),
    ("Cn1nc(C(F)(F)F)cc1-c1ccc(OCc2ccc(Cl)cc2)c(-c2cccc(C#N)c2)c1O", "MLM % at 60 min", 80.3),
    ("Oc1cc(OCc2ccc(Cl)cc2)ccc1-c1n[nH]c(C(F)(F)F)c1Oc1ccccc1Cl", "MLM % at 60 min", 87.4),
]

Give MLM % at 60 min for each of the items listed below.
1. CCCCCCOc1ccc(-c2cc(C(F)(F)F)nn2C)c(O)c1-c1cncc(C#N)c1
2. Oc1c(-c2cc(C(F)(F)F)[nH]n2)ccc(OCc2ccc(Cl)cc2)c1-c1ccccc1Cl
3. COc1cccc(-c2c(-c3ccc(OCc4ccc(Cl)cc4)cc3O)n[nH]c2C(F)(F)F)c1
4. CCCCOc1ccc(-c2cc(C(F)(F)F)n(C)n2)c(O)c1-c1cncc(C(F)(F)F)c1

1. 52.7
2. 88.6
3. 74
4. 10.3
